Provenance of the data: patent US20100048597A1

- TARGET: CDK2/cyclinA (Homo sapiens)
- METHOD SUMMARY: CDK2/cyclinA kinase assay, IMAP fluorescence polarization
pIC50: −log10 of the molar value.
OBSERVED PROPERTY: pIC50

Some compounds with known pIC50 results, for comparison:
CC(=O)NCCCNc1cc(-c2nc(Nc3cccc(Cl)c3)ncc2C)ccn1 [Compound 32]: > 5.30
COc1ncccc1-c1ccnc(Nc2cccc(S(N)(=O)=O)c2)n1 [Compound 99]: > 5.30
COc1ncccc1-c1ccnc(Nc2cccc(C#N)c2)n1 [Compound 91]: > 5.30

query: Which pIC50 value belongs to COc1ncccc1-c1ccnc(Nc2cccc(C(=O)NCCN(C)C)c2)n1 [Compound 97] ?
result: 4.82 to 5.30

query: Similarly, CC(=O)NCCCCNc1ncccc1-c1ccnc(Nc2cccc(Cl)c2)n1 [Compound 85] ?
result: > 5.30
